# targetOrTestSystem: Epidermal growth factor receptor (Homo sapiens) (UniProt P00533)
# Sequence (P00533 whole entry, looked up): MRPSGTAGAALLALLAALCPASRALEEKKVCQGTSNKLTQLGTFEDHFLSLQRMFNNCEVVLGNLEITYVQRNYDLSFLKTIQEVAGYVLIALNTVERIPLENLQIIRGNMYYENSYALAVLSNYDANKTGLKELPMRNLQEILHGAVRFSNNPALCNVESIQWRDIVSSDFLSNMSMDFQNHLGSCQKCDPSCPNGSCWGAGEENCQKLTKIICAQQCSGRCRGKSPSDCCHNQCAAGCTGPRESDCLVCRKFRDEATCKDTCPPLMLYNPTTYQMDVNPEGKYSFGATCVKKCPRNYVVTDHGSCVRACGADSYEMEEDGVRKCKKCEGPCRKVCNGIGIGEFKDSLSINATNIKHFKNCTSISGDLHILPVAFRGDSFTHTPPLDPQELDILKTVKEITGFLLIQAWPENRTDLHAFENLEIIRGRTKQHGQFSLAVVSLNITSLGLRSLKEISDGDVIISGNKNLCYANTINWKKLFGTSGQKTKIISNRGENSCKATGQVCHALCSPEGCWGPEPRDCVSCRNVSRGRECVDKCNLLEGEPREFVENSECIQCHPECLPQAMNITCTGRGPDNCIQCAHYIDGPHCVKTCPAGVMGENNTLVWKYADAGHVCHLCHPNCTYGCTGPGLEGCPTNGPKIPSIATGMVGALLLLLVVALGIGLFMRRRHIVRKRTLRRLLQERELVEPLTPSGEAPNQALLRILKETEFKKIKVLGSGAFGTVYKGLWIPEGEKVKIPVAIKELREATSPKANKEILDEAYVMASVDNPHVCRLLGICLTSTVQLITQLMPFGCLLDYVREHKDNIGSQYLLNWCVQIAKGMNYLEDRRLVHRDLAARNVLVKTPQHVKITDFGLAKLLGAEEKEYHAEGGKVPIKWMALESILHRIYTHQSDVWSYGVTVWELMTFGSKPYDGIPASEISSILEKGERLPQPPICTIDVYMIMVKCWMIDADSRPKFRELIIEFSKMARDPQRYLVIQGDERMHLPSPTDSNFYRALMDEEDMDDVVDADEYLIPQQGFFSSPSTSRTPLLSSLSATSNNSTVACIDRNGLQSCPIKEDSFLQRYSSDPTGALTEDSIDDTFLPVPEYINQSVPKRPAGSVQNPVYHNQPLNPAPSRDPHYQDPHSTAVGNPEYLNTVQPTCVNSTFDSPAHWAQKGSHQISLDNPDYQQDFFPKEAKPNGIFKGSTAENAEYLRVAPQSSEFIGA
# measurementProtocol: EGFR binders on small-molecule microarrays, primary screen, biochemical, small-molecule microarray, 635 nm fluorescence (AID 1104);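 note: score merges 667 nm emission intensity with spot signal to noise over triplicate slides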
# conditionDetails: EGFR binding, higher = more signal
metric: composite z-score

molecule	assayValue
CCCC=C(CCC)[C@@H](NP(=O)(c1ccccc1)c1ccccc1)c1ccc(C(F)(F)F)cc1	-0.0267
CC1CC/C=C\[C@H]2OC34C=CCN(CCN5CCOCC5)C(=O)[C@H]3N(CCO)C(=O)[C@@H]4C2C(=O)O1 (some centres undefined)	-0.707
C=CC[C@H](OC(=O)Nc1ccc(OC)cc1)c1ccc(O)c2ccccc12	0.547
O=C1O[C@@H](c2ccccc2)[C@@H](c2ccccc2)N2[C@@H](c3ccccc3OCCO)[C@]3(C(=O)Nc4ccc(C#CC5=CCCCC5)cc43)[C@@H](C(=O)NC[C@H](O)c3ccccc3)[C@H]12	0.496
O=c1cccc(-c2cccc(Cl)c2)o1	0.167
COCCOC(=O)N1C(=O)[C@@]2(c3cc(C#CCC(C(=O)OC)C(=O)OC)ccc31)[C@H](c1ccc(OCCO)cc1)N1[C@H](c3ccccc3)[C@H](c3ccccc3)OC(=O)[C@H]1[C@@H]2C(=O)N1CCN(c2ncccn2)CC1	0.517
CC[C@@H]1[C@H]2C3C(=O)N(CC)C(=O)C3CC(=O)[C@H]2[C@H](c2ccc(C)cc2)N1S(=O)(=O)c1ccc(C)cc1 (some centres undefined)	0.183
C[n+]1ccc(CCCO)cc1	-0.455
COCCOC(=O)N1C(=O)[C@@]2(c3cc(C#CC4=CCCCC4)ccc31)[C@H](C(=O)N1CCN(c3ncccn3)CC1)[C@H]1C(=O)O[C@H](c3ccccc3)[C@H](c3ccccc3)N1[C@@H]2c1ccc(O)cc1	0.466
CN1C(=O)[C@@]2(CCS(=O)(=O)c3ccccc3)N=C(c3ccc(OCCCO)cc3)O[C@H]2c2ccccc21	0.364
C=CCNC(=O)[C@H]1[C@@H]2C(=O)O[C@@H](c3ccccc3)[C@@H](c3ccccc3)N2[C@@H](c2ccccc2OCCO)[C@]12C(=O)N(C(=O)OCCOC)c1ccc(C#CC3=CCCCC3)cc12	0.69
C=CC[C@@H](OC(=O)Nc1ccc(OC)cc1)c1ccc(OCCO)cc1	-1.99
O=C1O[C@@H](c2ccccc2)[C@@H](c2ccccc2)N2[C@@H](c3ccccc3OCCO)[C@]3(C(=O)Nc4ccc(C#CCCO)cc43)[C@@H](C(=O)Nc3nc4ccccc4s3)[C@H]12	0.528
C=C[C@@H](C)[C@H](OC(=O)Nc1ccc(SC)cc1)c1ccc(OCCO)cc1	-0.541

The origin of these recorded values is PubChem BioAssay.
